Values compiled from ChEMBL document CHEMBL5370644.

Test system: Staphylococcus epidermidis
assay_method_text: Antibacterial activity against methicillin-sensitive Staphylococcus epidermidis ATCC 12228 assessed as bacterial growth inhibition incubated for 16 to 20 hrs by CLSI based two-fold serial dilution method
Assay type: functional
experimental_context: time 16-20 hrs
measured_property: MIC

>  <mol_smiles>
CC1=C[C@H](O)[C@]2(O)C(=O)c3c(ccc(-c4ccc5c(c4O)C(=O)C4=C(O)C[C@@H](C)[C@H](O)[C@@]4(C)O5)c3O)O[C@@]2(C)[C@H]1O

>  <measured_on>
Staphylococcus epidermidis

>  <MIC>
≤ 0.125 µg/mL

$$$$
>  <mol_smiles>
CC1=CC(O)=C2C(=O)c3c(ccc(-c4ccc(O)c(C(=O)c5c(O)cc(C)c(O)c5C)c4O)c3O)O[C@@]2(C)[C@H]1O

>  <measured_on>
Staphylococcus epidermidis

>  <MIC>
≤ 0.125 µg/mL

$$$$
>  <mol_smiles>
CC1=CC(O)=C2C(=O)c3c(O)ccc(-c4ccc5c(c4O)C(=O)C4=C(O)C=C(C)[C@H](O)[C@]4(C)O5)c3O[C@@]2(C)C1=O

>  <measured_on>
Staphylococcus epidermidis

>  <MIC>
≤ 0.125 µg/mL

$$$$
>  <mol_smiles>
CC1=CC(O)=C2C(=O)c3c(O)ccc(-c4ccc5c(c4O)C(=O)C4=C(O)C=C(C)[C@H](O)[C@]4(C)O5)c3O[C@]2(C)C1=O

>  <measured_on>
Staphylococcus epidermidis

>  <MIC>
0.25 µg/mL

$$$$
>  <mol_smiles>
CC1=CC(O)=C2C(=O)c3c(ccc(-c4ccc5c(c4O)C(=O)C4=C(O)C=C(C)[C@H](O)[C@]4(C)O5)c3O)O[C@]2(C)C1=O

>  <measured_on>
Staphylococcus epidermidis

>  <MIC>
≤ 0.125 µg/mL

$$$$

Incoming: Name the reported MIC value associated with the compound CC1=CC(O)=C2C(=O)c3c(ccc(-c4ccc5c(c4O)C(=O)C4=C(O)C=C(C)[C@H](O)[C@]4(C)O5)c3O)O[C@@]2(C)C1=O
Outgoing: ≤ 0.125 µg/mL

----------
Tested on: Enterococcus faecalis
assay_method_text: Antibacterial activity against vancomycin-sensitive Enterococcus faecalis ATCC 29212 assessed as bacterial growth inhibition incubated for 16 to 20 hrs by CLSI based two-fold serial dilution method
Format: functional
experimental_context: time 16-20 hrs
Give MIC for every item shown.
Answers are plain numbers, in mg/L.

>  <molecule>
CC1=C[C@H](O)[C@]2(O)C(=O)c3c(ccc(-c4ccc5c(c4O)C(=O)C4=C(O)C[C@@H](C)[C@H](O)[C@@]4(C)O5)c3O)O[C@@]2(C)[C@H]1O

>  <measured_on>
Enterococcus faecalis

>  <MIC [mg/L]>
2

$$$$
>  <molecule>
CC1=CC(O)=C2C(=O)c3c(ccc(-c4ccc5c(c4O)C(=O)C4=C(O)C=C(C)C(=O)[C@]4(C)O5)c3O)O[C@@]2(C)C1=O

>  <measured_on>
Enterococcus faecalis

>  <MIC [mg/L]>
4

$$$$
>  <molecule>
C[C@H]1COc2c(N3CCN(C)CC3)c(F)cc3c(=O)c(C(=O)O)cn1c23 [LEVOFLOXACIN ANHYDROUS]

>  <measured_on>
Enterococcus faecalis

>  <MIC [mg/L]>
1

$$$$
>  <molecule>
CC1=CC(O)=C2C(=O)c3c(ccc(-c4ccc5c(c4O)C(=O)C4=C(O)C=C(C)[C@H](O)[C@]4(C)O5)c3O)O[C@@]2(C)[C@H]1O

>  <measured_on>
Enterococcus faecalis

>  <MIC [mg/L]>
128

$$$$

The record that follows has no MIC shown yet.
Incoming: Name the reported MIC value associated with the molecule CC1=CC(O)=C2C(=O)c3c(O)ccc(-c4ccc5c(c4O)C(=O)C4=C(O)C=C(C)[C@H](O)[C@]4(C)O5)c3O[C@@]2(C)C1=O
Outgoing: 2
